tested on: Erythrocyte; experiment: Antioxidant activity against H2O2-induced oxidative stress in mouse RBC assessed as inhibition of LPO accumulation at 1 uM pretreated for 30 mins followed by H2O2 addition and measured after 4 hrs by TBARS assay relative to control; format: functional
RECORDED_ENDPOINT: inhibition at 1 µM (%)
Give bare numbers, in %.

structure_smiles=CCCCNCc1c(O)c(CC=C(C)C)c(O)c2c(=O)c3c(CC=C(C)C)c(OC)c(O)c(CN(C)C)c3oc12 system_under_test=Erythrocyte recorded_endpoint="inhibition at 1 µM" reported_value=53.5
structure_smiles=COc1c(O)cc2oc3c(CN4CCCC4)c(O)c(CC=C(C)C)c(O)c3c(=O)c2c1CC=C(C)C system_under_test=Erythrocyte recorded_endpoint="inhibition at 1 µM" reported_value=56.4
structure_smiles=COc1c(O)c(CN2CCCCCC2)c2oc3c(CN4CCOCC4)c(O)c(CC=C(C)C)c(O)c3c(=O)c2c1CC=C(C)C system_under_test=Erythrocyte recorded_endpoint="inhibition at 1 µM" reported_value=56.1

// each listed molecule needs a value for inhibition at 1 µM
1. COc1c(O)cc2oc3c(CN4CCCCCC4)c(O)c(CC=C(C)C)c(O)c3c(=O)c2c1CC=C(C)C
2. COc1c(O)c(CN2CCCCCC2)c2oc3c(CN4CCCCCC4)c(O)c(CC=C(C)C)c(O)c3c(=O)c2c1CC=C(C)C
3. COc1c(O)c(CN(C)C)c2oc3c(CN(C)C)c(O)c(CC=C(C)C)c(O)c3c(=O)c2c1CC=C(C)C

[51.2, 34.8, 56.1]

The following molecules each have a reported value; give each one's inhibition at 1 µM.
1. CCCCNCc1c(O)c(CC=C(C)C)c(O)c2c(=O)c3c(CC=C(C)C)c(OC)c(O)cc3oc12
2. COc1c(O)c(CN2CCOCC2)c2oc3c(CN4CCOCC4)c(O)c(CC=C(C)C)c(O)c3c(=O)c2c1CC=C(C)C

1. 60.5
2. 76.1

====

Field: inhibition at 0.05 µM. Provide a value for each of the compounds that follow.
test system: Erythrocyte; experiment: Antioxidant activity against H2O2-induced oxidative stress in mouse RBC assessed as inhibition of LPO accumulation at 0.05 uM pretreated for 30 mins followed by H2O2 addition and measured after 4 hrs by TBARS assay relative to control; assay type: functional
Put down the number, then write its unit next to it.

structure_smiles=CC(C)=CCc1c(O)c(CN2CCCCCC2)c2oc3c(CN4CCCCCC4)c(O)c(O)c(CC=C(C)C)c3c(=O)c2c1O reported_value=69%
structure_smiles=CC(C)=CCc1c(O)cc2oc3cc(O)c(O)c(CC=C(C)C)c3c(=O)c2c1O reported_value=72.8%
structure_smiles=CC(C)=CCc1c(O)c(CN2CCOCC2)c2oc3c(CN4CCOCC4)c(O)c(O)c(CC=C(C)C)c3c(=O)c2c1O reported_value=78.5%

// recorded inhibition at 0.05 µM for CC(C)=CCc1c(O)c(CN(C)C)c2oc3c(CN(C)C)c(O)c(O)c(CC=C(C)C)c3c(=O)c2c1O : 67.7%

====

assay: Hemolytic activity against mouse RBC assessed as hemolysis measured after 5 hrs by malondialdehyde indicator based assay relative to control; assay type: ADME, cell-based, Erythrocyte; conditions: mouse red blood cells (erythrocytes), read-out: Activity
RECORDED_ENDPOINT: hemolysis at 5 h

Value of measured hemolysis at 5 h for the entry COc1c(O)cc2oc3c(CN(C)C)c(O)c(CC=C(C)C)c(O)c3c(=O)c2c1CC=C(C)C : 63.1%
